Source of measurements: patent US20170305922A1

target: Human CARM1 (PRMT4) (Homo sapiens, UniProt Q86X55); construct: Flag-CARM1-His was eluted with 200 ug/ml FLAG peptide in buffer A; assay: CARM1 enzyme assay on peptide substrates (3H-SAM Flashplate); details: Biochemical assay; CARM1 0.25 nM, 3H-SAM 30 nM, peptide 250 nM; read-out: Biochem IC50
pIC50: −log10 of the molar value.

| smiles-structure | subject-of-test | pIC50 |
| --- | --- | --- |
| CNC[C@@H](O)COc1ccc(Cl)c(-c2nc(-c3c(C)noc3C)c(C)c(N3C[C@H]4CN(C(=O)OC)C[C@H]4C3)n2)c1 | Human CARM1 (PRMT4) (Homo sapiens, UniProt Q86X55) | 8.28 |
| CNC[C@@H](O)COc1ccc(Cl)c(-c2nc(-c3c(C)c(Cl)nn3C)c(C)c(N3CC4(CN(CC(F)F)C4)C3)n2)c1 | Human CARM1 (PRMT4) (Homo sapiens, UniProt Q86X55) | 8.62 |
| CNC[C@@H](O)COc1ccc(Cl)c(-c2nc(-c3c(C)noc3C)c(C)c(N3CC4(CC(C(=O)N(C)C)C4)C3)n2)c1 | Human CARM1 (PRMT4) (Homo sapiens, UniProt Q86X55) | 8.26 |
| CNC[C@@H](O)COc1ccc(Cl)c(-c2nc(-c3c(C)noc3C)c(C)c(N3CC4(CCC(C(=O)N5CCC5)CC4)C3)n2)c1 | Human CARM1 (PRMT4) (Homo sapiens, UniProt Q86X55) | 8.41 |
| CNC[C@@H](O)COc1ccc(Cl)c(-c2nc(-c3c(Cl)cnn3C)c(C)c(N3CC4(CCN(C(=O)OC)CC4)C3)n2)c1 | Human CARM1 (PRMT4) (Homo sapiens, UniProt Q86X55) | 8.01 |
| CCOc1ncc2c(n1)CN(c1nc(-c3cc(OC[C@H](O)CNC)ccc3Cl)nc(-c3c(Cl)cnn3C)c1C)C2 | Human CARM1 (PRMT4) (Homo sapiens, UniProt Q86X55) | 8.41 |
| CNC[C@@H](O)COc1ccc(Cl)c(-c2nc(-c3c(C)noc3C)c(C)c(N3CC4(CCN4C(=O)OC)C3)n2)c1 | Human CARM1 (PRMT4) (Homo sapiens, UniProt Q86X55) | 8.08 |
| CNC[C@@H](O)COc1ccc(Cl)c(-c2nc(-c3c(C)noc3C)c(C)c(N3C[C@H]4CN(C(=O)C(F)(F)F)C[C@H]4C3)n2)c1 | Human CARM1 (PRMT4) (Homo sapiens, UniProt Q86X55) | 8.85 |
| CNC[C@@H](O)COc1ccc(F)c(-c2nc(-c3c(C)noc3C)c(C)c(N3Cc4cn(CC(F)(F)F)nc4C3)n2)c1 | Human CARM1 (PRMT4) (Homo sapiens, UniProt Q86X55) | 8.62 |
| CCn1ncc(C)c1-c1nc(-c2cc(OC[C@H](O)CNC)ccc2Cl)nc(N2CC3(CCN(C(=O)OC)CC3)C2)c1C | Human CARM1 (PRMT4) (Homo sapiens, UniProt Q86X55) | 8.05 |
| CNC[C@@H](O)COc1ccc(Cl)c(-c2nc(-c3c(C)noc3C)c(C)c(N3CC4(CCN(C(C)=O)C4)C3)n2)c1 | Human CARM1 (PRMT4) (Homo sapiens, UniProt Q86X55) | 7.96 |
| CNC[C@@H](O)COc1ccc(Cl)c(-c2nc(-c3c(C)noc3C)c(C)c(N3CC4(CC(N5CCOCC5)C4)C3)n2)c1 | Human CARM1 (PRMT4) (Homo sapiens, UniProt Q86X55) | 8.31 |
| CCOc1ccc2c(n1)CN(c1nc(-c3cc(OC[C@H](O)CNC)ccc3Cl)nc(-c3c(C)noc3C)c1C)C2 | Human CARM1 (PRMT4) (Homo sapiens, UniProt Q86X55) | 8.70 |

---

Target: Human CARM1 (PRMT4) (Homo sapiens)
Construct: Flag-CARM1-His was eluted with 200 ug/ml FLAG peptide in buffer A
Sequence (Q86X55 1-585 isoform Q86X55-1): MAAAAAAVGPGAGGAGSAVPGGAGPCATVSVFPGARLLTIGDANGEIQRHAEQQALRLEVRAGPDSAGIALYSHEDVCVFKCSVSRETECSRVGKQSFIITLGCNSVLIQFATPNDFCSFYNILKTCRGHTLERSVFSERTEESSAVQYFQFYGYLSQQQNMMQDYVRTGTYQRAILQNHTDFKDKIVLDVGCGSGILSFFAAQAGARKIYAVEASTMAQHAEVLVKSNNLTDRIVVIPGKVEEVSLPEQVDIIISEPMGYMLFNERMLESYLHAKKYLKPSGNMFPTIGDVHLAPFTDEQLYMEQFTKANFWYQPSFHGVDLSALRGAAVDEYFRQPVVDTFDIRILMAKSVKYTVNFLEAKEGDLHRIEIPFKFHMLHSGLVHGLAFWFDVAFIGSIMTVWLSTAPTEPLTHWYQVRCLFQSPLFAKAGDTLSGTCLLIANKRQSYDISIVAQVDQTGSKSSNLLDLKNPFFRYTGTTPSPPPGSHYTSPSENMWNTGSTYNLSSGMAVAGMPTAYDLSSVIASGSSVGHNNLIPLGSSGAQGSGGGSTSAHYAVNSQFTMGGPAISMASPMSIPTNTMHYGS
Experiment: CARM1 enzyme assay on peptide substrates (3H-SAM Flashplate)
Details: Biochemical assay; CARM1 0.25 nM, 3H-SAM 30 nM, peptide 250 nM; read-out: Biochem IC50
outcome-measure: IC50 (nM)

| molecule | outcome-measure | reported |
| --- | --- | --- |
| CNC[C@@H](O)COc1ccc(Cl)c(-c2nc(-c3c(C)c(Br)nn3C)c(C)c(N3CC4(CC(OC)C4)C3)n2)c1 [Example 256] | IC50 | 3.96 |
| CNC[C@@H](O)COc1ccc(Cl)c(-c2nc(CCC3CCN(C(=O)OC)CC3)c(C)c(-c3c(C)noc3C)n2)c1 [Example 107] | IC50 | 11.2 |
| CNC[C@@H](O)COc1ccc(Cl)c(-c2nc(-c3c(C)noc3C)c(C)c(N3Cc4cn(C5COC5)nc4C3)n2)c1 [Example 126] | IC50 | 6.2 |
| CNC[C@@H](O)COc1ccc(Cl)c(-c2nc(-c3c(C)noc3C)c(C)c(N3CC4(CC(N5CC(F)C5)C4)C3)n2)c1 [Example 280] | IC50 | 2.09 |
| CNC[C@@H](O)COc1ccc(Cl)c(-c2nc(-c3c(C)noc3C)c(C)c(N3CC4(C3)CC(F)(F)C4)n2)c1 [Example 78] | IC50 | 5.6 |
| CNC[C@@H](O)COc1ccc(Cl)c(-c2nc(-c3c(C)noc3C)c(C)c(N3Cc4ccc(O[C@@H]5CCOC5)nc4C3)n2)c1 [Example 253] | IC50 | 2.36 |

---

Measured IC50 values are reported for all entries that follow.
molecular target: Human CARM1 (PRMT4) (Homo sapiens); construct: Flag-CARM1-His was eluted with 200 ug/ml FLAG peptide in buffer A; assay: CARM1 enzyme assay on peptide substrates (3H-SAM Flashplate); settings: Biochemical assay; CARM1 0.25 nM, 3H-SAM 30 nM, peptide 250 nM; read-out: Biochem IC50
outcome-measure: IC50 (nM)

| molecule | reported |
| --- | --- |
| CCn1ncc(Cl)c1-c1nc(-c2cc(OC[C@H](O)CNC)ccc2Cl)nc(N2Cc3cccnc3C2)c1C | 3.7 |
| CNC[C@@H](O)COc1ccc(Cl)c(-c2nc(-c3c(Br)cnn3C)c(C)c(N3CC4=C(CN(C(=O)OC)C4)C3)n2)c1 | 3.03 |
| CNC[C@@H](O)COc1ccc(Cl)c(-c2nc(-c3c(C)noc3C)c(C)c(N3Cc4cnc(NCCO)nc4C3)n2)c1 | 2.6 |
| CNC[C@@H](O)COc1ccc(Cl)c(-c2nc(-c3c(C)noc3C)c(C)c(N3CC4(CCN(S(C)(=O)=O)CC4)C3)n2)c1 | 7.3 |
| CNC[C@@H](O)COc1ccc(Cl)c(-c2nc(-c3c(C)noc3C)c(C)c(N3Cc4cnc(SC)nc4C3)n2)c1 | 3.9 |
| CNC[C@@H](O)COc1ccc(Cl)c(-c2nc(-c3c(C)noc3C)c(C)c(N3Cc4cnc(N5CC[C@H]5C)nc4C3)n2)c1 | 1.8 |
| CNC[C@@H](O)COc1ccc(Cl)c(-c2nc(-c3c(C)noc3C)c(C)c(N3CC4(CCC(OC)C4)C3)n2)c1 (stereo partly drawn) | 5.36 |
| CCOc1ncc2c(n1)CN(c1nc(-c3cc(OC[C@H](O)CNC)ccc3Cl)nc(-c3c(C)c(Cl)nn3C)c1C)C2 | 2.4 |
| Cc1noc(C)c1-c1nc(-c2cc(OC[C@H](O)CN(C)C=O)ccc2Cl)nc(N2Cc3cccnc3C2)c1C | 120 |
| CCOc1ncc2c(n1)CN(c1nc(-c3cc(OC[C@H](O)CNC)ccc3Cl)nc(-c3c(C)noc3CC)c1C)C2 | 5.7 |
| CNC[C@@H](O)COc1ccc(Cl)c(-c2nc(-c3c(Cl)cnn3C)c(C)c(N3Cc4nccnc4C3)n2)c1 | 2.7 |
| CNC[C@@H](O)COc1ccc(Cl)c(-c2nc(-c3c(C)noc3C)c(C)c(N3C[C@@H]4C[C@H]3CN4CC(F)F)n2)c1 | 8 |
| CNC[C@@H](O)COc1ccc(Cl)c(-c2nc(-c3c(C)noc3C)c(C)c(N3C[C@@H]4C[C@H]3CN4C(=O)OC)n2)c1 | 10.8 |
| CNC[C@@H](O)COc1ccc(Cl)c(-c2nc(-c3c(C)noc3C)c(C)c(N3Cc4nc(C)n(C)c(=O)c4C3)n2)c1 | 3.7 |
| CNC[C@@H](O)COc1ccc(Cl)c(-c2nc(-c3c(C)noc3C)c(C)c(N3CC4(CCN4CC(F)(F)F)C3)n2)c1 | 11.3 |
| CNC[C@@H](O)COc1cccc(-c2nc(-c3c(C)cnn3C)c(C)c(N3Cc4cncnc4C3)n2)c1 | 3.9 |
| CNC[C@@H](O)COc1ccc(Cl)c(-c2nc(-c3c(C)noc3C)c(C)c(N3CC4(CC(N5CC(OC)C5)C4)C3)n2)c1 | 0.8 |
| CNC[C@@H](O)COc1ccc(Cl)c(-c2nc(-c3c(C)c(C#N)nn3C)c(C)c(N3Cc4cncnc4C3)n2)c1 | 2.31 |
| CNC[C@@H](O)COc1ccc(Cl)c(-c2nc(-c3cnn(C4CC4)c3)c(C)c(-c3c(C)noc3C)n2)c1 | 8.1 |
| CNC[C@@H](O)COc1ccc(Cl)c(-c2nc(-c3c(C)noc3C)c(C)c(N3CC4(C3)CC(OC)(C(F)(F)F)C4)n2)c1 | 5.2 |
| CCc1onc(C)c1-c1nc(-c2cc(OC[C@H](O)CNC)ccc2Cl)nc(N2CC3(CCN(C(=O)OC)CC3)C2)c1C | 5.1 |
| CNC[C@@H](O)COc1ccc(Cl)c(-c2nc(-c3c(C)noc3C)c(C)c(N3CC4(C3)CN(C(C)C(F)(F)F)C4)n2)c1 (stereo partly drawn) | 5.67 |
| CNC[C@@H](O)COc1ccc(Cl)c(-c2nc(-c3c(C)noc3C)c(C)c(N3CC4(CCCN(CC(F)F)C4)C3)n2)c1 | 4.98 |
| CNC[C@@H](O)COc1ccc(Cl)c(-c2nc(-c3c(C)noc3C)c(C)c(N3C[C@H]4C[C@@H]3CN4CC(F)F)n2)c1 | 9 |
| CNC[C@@H](O)COc1ccc(Cl)c(-c2nc(-c3c(C)noc3C)c(C)c(N3CC4(C3)CC3(C4)OCCO3)n2)c1 | 4.92 |
| CCc1cc2c(cn1)CN(c1nc(-c3cc(OC[C@H](O)CNC)ccc3Cl)nc(-c3c(C)noc3C)c1C)C2 | 2.6 |
| CNC[C@@H](O)COc1ccc(Cl)c(-c2nc(-c3c(C)c(Br)nn3C)c(C)c(N3CC4(CC(OCCC#N)C4)C3)n2)c1 | 2.83 |
